Exercise: state measured GI50 for each of the molecules provided.
- Tested on: NCI-H23
- assay: NCI tumour cell line growth inhibition, 48 h
Active and inactive are the calls of the source. No stated cut-off is given here; in the data, active = GI50 up to about 1.1 µM and inactive = higher.

Answered examples (4):
| molecule | GI50 |
| --- | --- |
| CN1C2CCC1CC(CCNC(c1ccccc1)c1ccccc1)C2 (stereo unspecified) | > 100 µM (inactive) |
| O=P(O)(O)c1ccccc1Oc1ccccc1 | > 100 µM (inactive) |
| O=C(CC(O)(C(F)(F)F)C(F)(F)F)C(c1ccccc1)C(O)(C(F)(F)F)C(F)(F)F (stereo unspecified) | 6.47 µM (inactive) |
| BrC(Br)=C1C(=C(Br)Br)C(Br)C1Br (stereo unspecified) | 0.284 µM (active) |

Below are 5 molecules. Give each one its GI50.
1. CCOP(=O)(OCC)C(c1ccccc1)N(C(=O)NC(F)(F)F)c1cccc(F)c1 (stereo unspecified)
2. C#CC1(O)C(COP(=O)(O)OC(COCCCCCCCCCCCCCCCCCC)COP(=O)(O)OCC2OC(n3cc(C)c(=O)[nH]c3=O)CC2N=[N+]=[N-])OC(n2ccc(N)nc2=O)C1O (stereo unspecified)
3. C#CCOCn1cnc2ncnc(Cl)c21
4. CC1(C)CC(=O)c2[nH]c3ccccc3c2CC(=O)NCCc2cn1cn2
5. Cc1ccc2c(c1-c1ccccc1)C(=O)OC2

1: > 100 µM (inactive); 2: 2.61 µM (inactive); 3: > 100 µM (inactive); 4: > 100 µM (inactive); 5: > 100 µM (inactive)
